Let's go through some recorded Ki values for Human immunodeficiency virus type 1 protease (Human immunodeficiency virus 1) together.
Starred links: 1 amine or outer side, 2 acyl side, 3 side chain; linkers in the order of their positions; H or OH if unused. Non-standard residues stand in square brackets, D forms with d. Residues, ends and D or L forms follow the SMILES beside them. Ahppa(3S,4S) = O=C(C[C@H](O)[C@H](Cc1ccccc1)N[*:1])[*:2]
Record the result as number plus unit.

Recorded results for 3 compounds are shown here.
- CC(C)(C)OC(=O)N[C@@H](Cc1ccccc1)[C@@H](O)CC(Cc1ccc(OCC(=O)O)cc1)C(=O)N[C@@H]1c2ccccc2C[C@H]1O (stereo partly specified): 0.339 nM
- CC(C)(C)OC(=O)N[C@@H](Cc1ccccc1)[C@@H](O)C(=O)N[C@@H](CCC(=O)O)C(=O)N[C@@H](Cc1ccccc1)C(=O)O (stereo in doubt; 72): 17000 nM
- CC(C)CC(=O)N[C@H](C(=O)N[C@H](C(=O)N[C@@H](CC(C)C)[C@@H](O)CC(=O)N[C@@H](C)C(=O)N[C@@H](CC(C)C)[C@@H](O)CC(=O)O)C(C)C)C(C)C: 17 nM

Item: COC(=O)[C@@H](NC(=O)[C@@H](NC(=O)C[C@H](O)[C@H](Cc1ccccc1)NC(=O)[C@H](C)NC(=O)[C@H](C)NC(=O)[C@@H](N)CO)C(C)C)C(C)C (H-SAA[Ahppa(3S,4S)]VV-OMe) | System: Human immunodeficiency virus type 1 protease (Human immunodeficiency virus 1) | Ki: 813 nM

Lab entry: Human immunodeficiency virus type 1 protease (Human immunodeficiency virus 1) assay, compound NC(=O)C[C@H](NC(=O)OCc1ccccc1)C(=O)N[C@@H](Cc1ccccc1)C(=O)C(F)(F)CCc1ccccc1 , Ki = 2.09 nM

---

# test.target: Human immunodeficiency virus type 1 protease (Human immunodeficiency virus 1, UniProt Q72874)
Starred links: 1 amine or outer side, 2 acyl side, 3 side chain; linkers in the order of their positions; H or OH if unused. Non-standard residues stand in square brackets, D forms with d. Residues, ends and D or L forms follow the SMILES beside them. *: point of attachment. Ahppa(3S,4S) = O=C(C[C@H](O)[C@H](Cc1ccccc1)N[*:1])[*:2]; X1 = O=C(C[C@H](O)[C@H](Cc1ccc(O)cc1)N[*:1])[*:2]; Boc = CC(C)(C)OC(=O)*
The following compounds are shown together with reported Ki values.
Answer format reminder: number followed by unit.

Answered examples (4):
• CC(C)(C)OC(=O)N[C@@H](Cc1ccccc1)[C@@H](O)[C@H](O)[C@H](Cc1ccccc1)NC(=O)OC(C)(C)C = 39.8 nM
• CC(C)[C@H](NC(=O)OCc1ccccc1)C(=O)N[C@@H](Cc1ccccc1)[C@H](O)[C@@H](O)[C@H](Cc1ccccc1)NC(=O)[C@@H](NC(=O)OCc1ccccc1)C(C)C = 0.38 nM
• COC(=O)[C@@H](NC(=O)[C@@H](NC(=O)C[C@H](O)[C@H](Cc1ccccc1)NC(=O)[C@H](C)NC(=O)[C@H](C)NC(=O)[C@H](CO)NC(=O)OC(C)(C)C)C(C)C)C(C)C (Boc-SAA[Ahppa(3S,4S)]VV-OMe) = 1200 nM
• COC(=O)[C@@H](NC(=O)[C@@H](NC(=O)C[C@H](O)[C@H](Cc1ccc(O)cc1)NC(=O)[C@H](C)NC(=O)[C@H](C)NC(=O)[C@@H](N)CO)C(C)C)C(C)C (H-SAA[X1]VV-OMe) = 79.4 nM

Could you now look at the following compound, please?
Measured Ki of COC(=O)[C@@H](NC(=O)[C@@H](NC(=O)C[C@H](O)[C@H](Cc1ccc(O)cc1)NC(=O)[C@H](C)NC(=O)[C@H](C)NC(=O)[C@H](CO)NC(=O)OC(C)(C)C)C(C)C)C(C)C (Boc-SAA[X1]VV-OMe) : 182 nM

---

# test.target: Human immunodeficiency virus type 1 protease (Human immunodeficiency virus 1, UniProt Q72874)
observed.property: pKi
Lab note — pKi values are minus log10 of concentrations in M.

* CC[C@H](C)[C@H](NC(=O)[C@@H](C[C@H](O)[C@H](CC(C)C)NC(=O)[C@H](Cc1c[nH]cn1)NC(=O)[C@H](Cc1ccccc1)NC(=O)[C@H]1CCCN1C(=O)[C@H](Cc1c[nH]cn1)NC(=O)OC(C)(C)C)C(C)C)C(=O)N[C@@H](Cc1c[nH]cn1)C(=O)O | 8.06

Now take the following molecule into account.
Entry CC(=O)N[C@@H](CO)C(=O)N[C@@H](CCC(N)=O)C(=O)N[C@@H](CC(N)=O)C(=O)N[C@@H](Cc1ccccc1)CN1CCC[C@@H]1C(=O)N[C@H](C(=O)N[C@H](C(N)=O)C(C)C)C(C)C (stereo in doubt; 70) — recorded pKi = 4.89

---

# Ki measurements, system: Human immunodeficiency virus type 1 protease (Human immunodeficiency virus 1)
Record the value in nM, omitting the unit from your answer.

* CC(C)[C@H](NC(=O)OCc1ccccc1)C(=O)N[C@@H](Cc1ccccc1)C(=O)C(F)(F)CCc1ccccn1 | 1.41
* CC[C@H](C)[C@H](NC(=O)[C@H]1CCCN1C(=O)[C@H](CO)NC(=O)[C@@H](NC(=O)[C@@H]1CCCN1C(=O)[C@H](Cc1ccccc1)NC(=O)[C@H](CC(N)=O)NC(=O)[C@H](CC(C)C)NC(=O)[C@@H](NC(=O)[C@@H](N)CS)[C@@H](C)O)[C@@H](C)CC)C(=O)O | 70.8

Turning to the following compound.
Human immunodeficiency virus type 1 protease (Human immunodeficiency virus 1) assay, compound CC(C)(C)OC(=O)N[C@@H](Cc1ccccc1)[C@H](O)CC(=O)N[C@@H](CCC(=O)O)C(=O)N[C@@H](Cc1ccccc1)C(=O)O , recorded Ki = 3980

---

compounds and their reported Ki
# test.target: Human immunodeficiency virus type 1 protease (Human immunodeficiency virus 1, UniProt Q72874)
Starred links: 1 amine or outer side, 2 acyl side, 3 side chain; linkers in the order of their positions; H or OH if unused. Non-standard residues stand in square brackets, D forms with d. Residues, ends and D or L forms follow the SMILES beside them. Hexanoyl(5S-NH,4S-OH,6-Ph) = O=C(CC[C@H](O)[C@H](Cc1ccccc1)N[*:1])[*:2]; X9 = O=C(CP(=O)(O)[C@H](Cc1ccccc1)N[*:1])[*:2]
Give just the numeric value; nM need not be written.

- CCC(C)CNC(=O)[C@H](C(C)C)[C@@H](O)[C@H](O)[C@H](CC(C)C)NC(=O)OCc1ccccc1 (stereo not given in full): 363
- CC[C@H](C)[C@H](NC(=O)[C@@H]1CCCN1C[C@@H](CC(=O)[C@H](CC(N)=O)NC(=O)[C@H](CCC(N)=O)NC(=O)[C@H](CO)NC(=O)[C@@H](N)C(C)C)Cc1ccccc1)C(=O)N[C@H](C(=O)O)C(C)C: 3550

Measured Ki, COC(=O)[C@@H](NC(=O)[C@@H](NC(=O)CC[C@H](O)[C@H](Cc1ccccc1)NC(=O)[C@H](C)NC(=O)[C@H](C)N)C(C)C)C(C)C (H-AA[Hexanoyl(5S-NH,4S-OH,6-Ph)]VV-OMe) : 18.2

The reported Ki of the compound COC(=O)[C@@H](NC(=O)[C@@H](NC(=O)CP(=O)(O)[C@H](Cc1ccccc1)NC(=O)[C@H](C)NC(=O)[C@H](C)NC(=O)[C@@H](N)CO)C(C)C)C(C)C (H-SAA[X9]VV-OMe) was 4470

Kindly note the recorded Ki for CC[C@H](C)[C@H](NC(=O)[C@@H](C[C@H](O)C(CC1CCCCC1)NC(=O)[C@@H](N)C(C)C)C(C)C)C(=O)NCc1ccccn1 (stereo not given in full) , which is 70.8

---

In this section we review reported Ki values for a set of compounds.
# test.target: Human immunodeficiency virus type 1 protease (Human immunodeficiency virus 1, UniProt Q72874)
Starred links: 1 amine or outer side, 2 acyl side, 3 side chain; linkers in the order of their positions; H or OH if unused. Non-standard residues stand in square brackets, D forms with d. Residues, ends and D or L forms follow the SMILES beside them. X10 = O=C([C@H]1CCCN1C[C@H](Cc1ccc(O)cc1)N[*:1])[*:2]

- CC[C@H](C)[C@H](NC(=O)[C@H](C(C)C)[C@@H](O)[C@H](O)[C@H](CC(C)C)NC(=O)OCc1ccccc1)C(=O)NCc1ccccn1: 5.01 nM
- CC(=O)N[C@H](C(=O)N[C@H](C(=O)C[C@@H](Cc1ccccc1)[C@H](O)[C@H](Cc1ccccc1)NC(=O)[C@@H](NC(=O)[C@@H](NC(C)=O)C(C)C)C(C)C)C(C)C)C(C)C: 10 nM

Now for a further compound.
Reported Ki for CC(=O)N[C@@H](CO)C(=O)N[C@@H](CCC(N)=O)C(=O)N[C@@H](CC(N)=O)C(=O)N[C@@H](Cc1ccc(O)cc1)CN1CCC[C@@H]1C(=O)N[C@H](C(=O)N[C@H](C(N)=O)C(C)C)C(C)C (Ac-SQN[X10]VV-NH2) was 12900 nM

Origin of measurements: ChEMBL document CHEMBL1127540
